- assayedSystem: GDP-bound KRAS wild-type protein (Homo sapiens, UniProt P01116)
- Sequence (P01116 whole entry): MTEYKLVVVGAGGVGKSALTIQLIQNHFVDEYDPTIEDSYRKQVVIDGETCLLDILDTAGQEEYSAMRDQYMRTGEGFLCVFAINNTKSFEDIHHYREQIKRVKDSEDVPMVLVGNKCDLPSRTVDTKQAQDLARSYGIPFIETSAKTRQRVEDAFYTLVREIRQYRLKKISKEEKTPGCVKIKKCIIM
- experimentSummary: Binding to KRAS by surface plasmon resonance (SPR), Single Cycle Kinetics
- testParameters: SPR Single Cycle Kinetics, GDP-bound KRAS wild-type protein, 1:1 binding model; read-out: KRAS KD
measuredMetric: Kd (nM)
Lab book: enter the figure in nM, no units written.

Query string: So what's the measured Kd for this one? CCO[C@@H]1C[C@H]2C(=O)NC3(CCC3)C(=O)N(C)[C@@H](C3CCCC3)C(=O)N(C)[C@H](C(=O)N3CCOCC3)CC(=O)N(C)[C@@H](CCOC)C(=O)N[C@@H]([C@@H](C)CC)C(=O)N(C)CC(=O)N(C)[C@H]3CCCCN(C3=O)[C@@H](Cc3ccc(C(F)(F)F)cc3)C(=O)N(C)CC(=O)N[C@@H](CCc3cc(F)c(C(F)(F)F)c(F)c3)C(=O)N2C1
Result string: 0.036

As a next step, examine the molecule that follows.
Query string: So what's the measured Kd for this one? CCC[C@H]1C(=O)N[C@@H]([C@@H](C)CC)C(=O)N(C)CC(=O)N(C)[C@H]2C/C=C\CCN(C2=O)[C@@H](Cc2ccc(C(F)(F)F)cc2)C(=O)N(C)CC(=O)N[C@@H](CCc2ccc(Cl)c(C(F)(F)F)c2)C(=O)N2C[C@H](OCC)C[C@H]2C(=O)NC2(CC(C)(C)C2)C(=O)N(C)[C@@H](C(CC)CC)C(=O)N(C)[C@H](C(=O)N(C)C)CC(=O)N1C
Result string: 0.26

---

- assayedSystem: GDP-bound KRAS wild-type protein (Homo sapiens, UniProt P01116)
- experimentSummary: Binding to KRAS by surface plasmon resonance (SPR), Single Cycle Kinetics
- testParameters: SPR, Single Cycle Kinetics, GDP-bound KRAS wild-type protein; read-out: KRAS KD
measuredMetric: pKd
Give only the number. pKd is defined as minus log10 of concentration in molar units.

Query string: # query: pKd | item CCO[C@@H]1C[C@H]2C(=O)NC3(CCC3)C(=O)N(C)[C@@H](C3CCCC3)C(=O)N(C)[C@H](C(=O)N3CCOCC3)CC(=O)N(C)[C@@H](COC)C(=O)N[C@@H]([C@@H](C)CC)C(=O)N(C)CC(=O)N(C)[C@H]3CCCCCN(C3=O)[C@@H](Cc3ccc(C(F)(F)F)cc3)C(=O)N(C)CC(=O)N[C@@H](CCc3ccc(C)cc3)C(=O)N2C1 | system: GDP-bound KRAS wild-type protein (Homo sapiens, UniProt P01116)
Result string: 7.92

Query string: # query: pKd | item CCO[C@@H]1C[C@H]2C(=O)NC3(CC(C)(C)C3)C(=O)N(C)[C@@H](C3CCCC3)C(=O)N(C)[C@H](C(=O)N(C)CC)CC(=O)N(C)[C@@H](CC(C)C)C(=O)N[C@@H]([C@@H](C)CC)C(=O)NCC(=O)N(C)[C@H]3C/C=C\CCN(C3=O)[C@@H](Cc3ccc(C(F)(F)F)cc3)C(=O)N(C)CC(=O)N[C@@H](CCc3cc(F)c(C(F)(F)F)c(F)c3)C(=O)N2C1 | system: GDP-bound KRAS wild-type protein (Homo sapiens, UniProt P01116)
Result string: 10.01

---

- assayedSystem: GDP-bound KRAS wild-type protein (Homo sapiens, UniProt P01116)
- experimentSummary: Binding to KRAS by surface plasmon resonance (SPR), Single Cycle Kinetics
- testParameters: SPR Single Cycle Kinetics, GDP-bound KRAS wild-type protein, 1:1 binding model; read-out: KRAS KD
*1 amine or outer side, *2 acyl side, *3 side chain or, on linkers, in order; H or OH if unused. Where a SMILES comes first, the peptide text is derived from it. Bridges are numbered along the chain shown (N, C = ends). [ ]: non-standard residue; d: D form. The star is where a group is joined. hPhe(3-Cl-4-CF3) = N[C@@H](CCc1ccc(C(F)(F)F)c(Cl)c1)C(=O)O; NPrPhe(4-CF3) = CCCN[C@@H](Cc1ccc(C(F)(F)F)cc1)C(=O)O; X10 = C=CCN([C@@H](Cc1ccc(C)cc1)C(=O)[*:2])[*:1]; NMeGly(cPent) = CN[C@H](C(=O)O)C1CCCC1; Pro(4,4-F2) = O=C(O)[C@@H]1CC(F)(F)CN1; NMeD = CN[C@@H](CC(=O)O)C(=O)O; NMeL = CN[C@@H](CC(C)C)C(=O)O; Morpholide = C1CN(*)CCO1; Ac5c = NC1(C(=O)O)CCCC1; Ac4c = NC1(C(=O)O)CCC1; Sar = CNCC(=O)O
measuredMetric: Kd (nM)
Lab book: enter the figure in nM, no units written.

Query string: So what's the measured Kd for this one? C=CCN1C(=O)CN(C)C(=O)CN(C)C(=O)[C@H]([C@@H](C)CC)NC(=O)[C@H](CC(C)C)N(C)C(=O)C[C@@H](C(=O)N2CCOCC2)N(C)C(=O)[C@H](C2CCCC2)N(C)C(=O)C2(CCCC2)NC(=O)[C@@H]2CCCN2C(=O)[C@H](CCc2ccc(C(F)(F)F)c(Cl)c2)NC(=O)CN(C)C(=O)[C@@H]1Cc1ccc(C)cc1 [PP0100] ([NMeL]I[Sar][Sar][X10][Sar][hPhe(3-Cl-4-CF3)]P[Ac5c][NMeGly(cPent)][NMeD]-Morpholide; lactam N-11)
Result string: 0.19

Query string: So what's the measured Kd for this one? CCOC[C@H]1C(=O)N[C@@H]([C@@H](C)CC)C(=O)N(C)CC(=O)N(C)[C@H]2C/C=C\CCN(C2=O)[C@@H](Cc2ccc(C(F)(F)F)cc2)C(=O)N(C)CC(=O)N[C@@H](CCc2ccc(C(F)(F)F)c(OC)c2)C(=O)N2C[C@H](OCC)C[C@H]2C(=O)NC2(CC(C)(C)C2)C(=O)N(C)[C@@H](CC(C)(C)C)C(=O)N(C)[C@H](C(=O)N(C)C)CC(=O)N1C [PP2736]
Result string: 0.061

New cases:
Query string: So what's the measured Kd for this one? CCCN1C(=O)CN(C)C(=O)CNC(=O)[C@H]([C@@H](C)CC)NC(=O)[C@H](CC(C)C)N(C)C(=O)C[C@@H](C(=O)N2CCOCC2)N(C)C(=O)[C@H](C2CCCC2)N(C)C(=O)C2(CCC2)NC(=O)[C@@H]2CC(F)(F)CN2C(=O)[C@H](CCc2ccc(C(F)(F)F)c(Cl)c2)NC(=O)CN(C)C(=O)[C@@H]1Cc1ccc(C(F)(F)F)cc1 [PP0395] ([NMeL]IG[Sar][NPrPhe(4-CF3)][Sar][hPhe(3-Cl-4-CF3)][Pro(4,4-F2)][Ac4c][NMeGly(cPent)][NMeD]-Morpholide; lactam N-11)
Result string: 0.068

The values you see were collected from patent US20240158446A1.
